These measurements were taken from patent US10781204B2.

Test system: Tyk2-pSTAT4 (IL-12 induced pSTAT4)
Assay: IL-12 induced pSTAT4 in human PBMC
Format: cell-based
Settings: Homo sapiens, PBMC, 0.5 h, 1.7 ng/mL IL-12, 30 minutes
pEC50: −log10 of the molar value.
For each entry below, report its pEC50 value.

(Q) Query: pEC50; subject: [2H]C1([2H])N(c2ccn(-c3cc(-c4c(F)cccc4C#N)nc4c3C(=O)NC4)n2)C([2H])([2H])C([2H])(O)C1([2H])[2H] (stereo not shown)
(A) 5.70 to 7.00

(Q) Query: pEC50; subject: `CCNC(=O)[C@@H]1CCCN(c2ccn(-c3cc(-c4c(F)cccc4C#N)nc4c3C(=O)NC4)n2)C1`
(A) 5.70 to 7.00

(Q) Query: pEC50; subject: `[2H]C1([2H])C[C@](O)(C([2H])([2H])[2H])C([2H])([2H])N1c1ccn(-c2cc(-c3c(F)cccc3C#N)nc3c2C(=O)NC3)n1`
(A) 7.00 to 7.52

(Q) Query: pEC50; subject: `N#Cc1cccc(F)c1-c1cc(-n2ccc(N3CC[C@]4(C3)OC[C@@H](O)CO4)n2)c2c(n1)CNC2=O`
(A) 5.70 to 7.00

(Q) Query: pEC50; subject: `C[C@H]1[C@H](O)CCN1c1ccn(-c2cc(-c3c(F)cccc3C#N)nc3c2C(=O)NC3)n1`
(A) 7.00 to 7.52

(Q) Query: pEC50; subject: `CC(C)c1csc(-c2cc(-c3c(F)cccc3F)nc3c2C(=O)NC3)n1`
(A) < 5.70

(Q) Query: pEC50; subject: `CN1CCN(c2ccn(-c3cc(-c4c(F)cccc4C#N)nc4c3C(=O)NC4)n2)CC1`
(A) 5.70 to 7.00

* * *

Each entry below carries its measured pKi, system: JAK2 (Homo sapiens (Human), UniProt O60674).
Sequence (O60674 whole entry): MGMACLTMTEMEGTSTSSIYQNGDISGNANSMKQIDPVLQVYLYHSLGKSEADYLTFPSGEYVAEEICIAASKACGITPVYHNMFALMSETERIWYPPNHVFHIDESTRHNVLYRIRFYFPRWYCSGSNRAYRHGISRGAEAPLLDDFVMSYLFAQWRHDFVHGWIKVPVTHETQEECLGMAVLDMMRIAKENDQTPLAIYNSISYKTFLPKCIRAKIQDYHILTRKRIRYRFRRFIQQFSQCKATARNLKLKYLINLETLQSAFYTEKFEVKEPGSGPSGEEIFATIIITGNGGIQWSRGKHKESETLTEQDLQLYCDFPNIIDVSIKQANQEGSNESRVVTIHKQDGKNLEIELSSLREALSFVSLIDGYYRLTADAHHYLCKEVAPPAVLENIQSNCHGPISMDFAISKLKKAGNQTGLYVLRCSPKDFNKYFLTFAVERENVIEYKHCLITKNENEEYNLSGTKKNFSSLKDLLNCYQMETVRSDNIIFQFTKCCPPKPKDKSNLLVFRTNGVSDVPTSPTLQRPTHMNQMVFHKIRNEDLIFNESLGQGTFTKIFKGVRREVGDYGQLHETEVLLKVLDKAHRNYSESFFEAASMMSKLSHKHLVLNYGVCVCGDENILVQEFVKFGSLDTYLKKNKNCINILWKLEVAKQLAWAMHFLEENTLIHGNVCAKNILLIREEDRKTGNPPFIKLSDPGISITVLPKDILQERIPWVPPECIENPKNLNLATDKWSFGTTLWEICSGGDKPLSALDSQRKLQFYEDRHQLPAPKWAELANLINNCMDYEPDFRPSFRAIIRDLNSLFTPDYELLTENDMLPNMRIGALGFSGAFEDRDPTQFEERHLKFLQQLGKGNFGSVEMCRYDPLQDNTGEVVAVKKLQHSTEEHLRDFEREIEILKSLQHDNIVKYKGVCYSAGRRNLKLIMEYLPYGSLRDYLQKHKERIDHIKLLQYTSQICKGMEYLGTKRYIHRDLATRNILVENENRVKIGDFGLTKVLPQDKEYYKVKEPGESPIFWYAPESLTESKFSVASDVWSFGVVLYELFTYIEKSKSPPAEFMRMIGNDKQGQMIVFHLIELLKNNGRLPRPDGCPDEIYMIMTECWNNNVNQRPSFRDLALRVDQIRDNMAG
pKi: −log10 of the molar value.

(Q) Query: pKi; subject: N#Cc1cccc(F)c1-c1cc(-n2ccc(N3CCC(O)(C(=O)N4CCCC4)C3)n2)c2c(n1)CNC2=O (centres unmarked) [I-191]
(A) 8.00 to 10.00

(Q) Query: pKi; subject: N#Cc1cccc(F)c1-c1cc(-n2ccc(N3C[C@H]4CC[C@@H](C3)O4)n2)c2c(n1)CNC2=O [I-188]
(A) 8.00 to 10.00

(Q) Query: pKi; subject: N#Cc1cccc(F)c1-c1cc(-n2ccc(NCCN3CCOCC3)n2)c2c(n1)CNC2=O [I-63]
(A) 7.00 to 8.00

(Q) Query: pKi; subject: CS(=O)(=O)N[C@@H]1CCN(c2ccn(-c3cc(-c4c(F)cccc4C#N)nc4c3C(=O)NC4)n2)C1 [I-134]
(A) 8.00 to 10.00

(Q) Query: pKi; subject: [2H]C1([2H])N(c2ccn(-c3cc(-c4c(F)cccc4C#N)nc4c3C(=O)NC4)n2)C([2H])([2H])[C@](C)(O)C([2H])([2H])C1([2H])[2H] [I-220]
(A) 7.00 to 8.00

(Q) Query: pKi; subject: N#Cc1cccc(F)c1-c1cc(-n2ccc(N3CC[C@H](C#N)C3)n2)c2c(n1)CNC2=O [I-128]
(A) 7.00 to 8.00

(Q) Query: pKi; subject: [2H]C1([2H])NC(=O)c2c(-n3ccc(N4C([2H])([2H])C[C@@](O)(C([2H])([2H])[2H])C4([2H])[2H])n3)cc(-c3c(F)cccc3C#N)nc21 [I-206]
(A) 7.00 to 8.00

(Q) Query: pKi; subject: N#Cc1cccc(F)c1-c1cc(-n2ccc(N3CCC[C@@H](C(=O)N4CCCC4)C3)n2)c2c(n1)CNC2=O [I-167]
(A) 8.00 to 10.00

(Q) Query: pKi; subject: N#Cc1cccc(F)c1-c1cc(-n2ccc(N3CCC(O)CC3)n2)c2c(n1)CNC2=O [I-56]
(A) 7.00 to 8.00

(Q) Query: pKi; subject: COCCOC1CN(c2ccn(-c3cc(-c4c(F)cccc4C#N)nc4c3C(=O)NC4)n2)C1 [I-82]
(A) ≤ 6.00

(Q) Query: pKi; subject: N#Cc1cccc(F)c1-c1cc(-n2ccc(N3CCNC(=O)C3)n2)c2c(n1)CNC2=O [I-175]
(A) 6.00 to 7.00

(Q) Query: pKi; subject: CO[C@H]1CN(c2ccn(-c3cc(-c4c(F)cccc4C#N)nc4c3C(=O)NC4)n2)CC[C@@H]1O [I-202]
(A) 7.00 to 8.00

(Q) Query: pKi; subject: [2H]C1([2H])NC(=O)c2c(-n3ccc(N4CCC[C@@](C)(O)C4)n3)cc(-c3c(F)cccc3C#N)nc21 [I-111]
(A) 7.00 to 8.00

(Q) Query: pKi; subject: C[C@@H]1CC(O)C[C@@H](C)N1c1ccn(-c2cc(-c3c(F)cccc3C#N)nc3c2C(=O)NC3)n1 (some centres unmarked) [I-106]
(A) 6.00 to 7.00

(Q) Query: pKi; subject: CO[C@@H]1CN(c2ccn(-c3cc(-c4c(F)cccc4C#N)nc4c3C(=O)NC4)n2)CC[C@H]1O [I-201]
(A) 7.00 to 8.00

(Q) Query: pKi; subject: [2H]C1([2H])C[C@@](O)(C([2H])([2H])[2H])C([2H])([2H])N1c1ccn(-c2cc(-c3c(F)cccc3C#N)nc3c2C(=O)NC3)n1 [I-183]
(A) 8.00 to 10.00

(Q) Query: pKi; subject: N#Cc1cccc(F)c1-c1cc(-n2ccc(N3CCC(O)C3)n2)c2c(n1)CNC2=O (centres unmarked) [I-76]
(A) 8.00 to 10.00

(Q) Query: pKi; subject: CN1CC2(CCN(c3ccn(-c4cc(-c5c(F)cccc5C#N)nc5c4C(=O)NC5)n3)CC2)C1 [I-110]
(A) ≤ 6.00

(Q) Query: pKi; subject: CN1CCN(c2ccn(-c3cc(-c4c(F)cccc4C#N)nc4c3C(=O)NC4)n2)CC1 [I-6]
(A) 8.00 to 10.00

(Q) Query: pKi; subject: CC(C)c1ccn(-c2cc(-c3c(F)cccc3C#N)nc3c2C(=O)NC3)n1 [I-151]
(A) 6.00 to 7.00

(Q) Query: pKi; subject: N#Cc1cccc(F)c1-c1cc(-n2ccc(N3CC[C@H](O)C3)n2)c2c(n1)CNC2=O [I-79]
(A) 7.00 to 8.00

(Q) Query: pKi; subject: [2H]C1([2H])NC(=O)c2c(-n3ccc(N4C([2H])([2H])C[C@](O)(C([2H])([2H])[2H])C4([2H])[2H])n3)cc(-c3c(F)cccc3C#N)nc21 [I-207]
(A) 7.00 to 8.00

(Q) Query: pKi; subject: CN(C)[C@H]1CC[C@H](Oc2ccn(-c3cc(-c4c(F)cccc4C#N)nc4c3C(=O)NC4)n2)CC1 [I-117]
(A) 7.00 to 8.00

(Q) Query: pKi; subject: N#Cc1cccc(F)c1-c1cc(-n2ccc(N3CCC[C@@](N)(C(F)(F)F)C3)n2)c2c(n1)CNC2=O [I-118]
(A) 8.00 to 10.00

(Q) Query: pKi; subject: C[C@@]1(O)CCN(c2ccn(-c3cc(-c4c(F)cccc4C#N)nc4c3C(=O)NC4)n2)C1 [I-92]
(A) 7.00 to 8.00

(Q) Query: pKi; subject: C[C@]1(O)CCN(c2ccn(-c3cc(-c4c(F)cccc4C#N)nc4c3C(=O)NC4)n2)C1 [I-93]
(A) 7.00 to 8.00
